biological target: Myeloperoxidase (Homo sapiens, UniProt P05164); assay: Inhibition of human recombinant MPO-mediated LDL oxidation after 5 mins by ELISA; settings: read-out: IC50
Sequence (P05164 165-273 limits assumed): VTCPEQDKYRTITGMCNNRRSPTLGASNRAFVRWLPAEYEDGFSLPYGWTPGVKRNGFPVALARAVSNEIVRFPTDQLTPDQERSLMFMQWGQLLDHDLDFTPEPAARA
Sequence (P05164 279-745 limits assumed): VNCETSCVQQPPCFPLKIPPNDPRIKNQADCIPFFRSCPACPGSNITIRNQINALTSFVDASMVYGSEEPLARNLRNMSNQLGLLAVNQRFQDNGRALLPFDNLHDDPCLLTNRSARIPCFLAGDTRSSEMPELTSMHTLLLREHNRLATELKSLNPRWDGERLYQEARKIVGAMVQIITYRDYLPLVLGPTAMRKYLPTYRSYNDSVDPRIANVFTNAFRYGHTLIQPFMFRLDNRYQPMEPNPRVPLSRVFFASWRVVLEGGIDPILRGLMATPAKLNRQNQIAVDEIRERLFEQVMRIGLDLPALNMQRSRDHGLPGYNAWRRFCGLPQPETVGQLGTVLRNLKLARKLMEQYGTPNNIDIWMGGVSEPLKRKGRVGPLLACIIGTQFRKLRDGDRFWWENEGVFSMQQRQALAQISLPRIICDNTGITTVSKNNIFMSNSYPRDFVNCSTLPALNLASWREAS
pIC50: −log10 of the molar value.
Recorded pIC50 by entry
observed.property: pIC50

compound=CCSCCCc1c[nH]c2ccc(F)cc12 observed_property=pIC50 value_modifier=< data_value=7.00
compound=Fc1ccc2[nH]cc(CCCNCc3ccccc3)c2c1 observed_property=pIC50 value_modifier== data_value=7.52
compound=OCCNCCCc1c[nH]c2ccc(F)cc12 observed_property=pIC50 value_modifier== data_value=7.37
compound=CCNC(=O)CCCc1c[nH]c2ccc(F)cc12 observed_property=pIC50 value_modifier== data_value=6.61
compound=NC(=O)CCCCc1c[nH]c2c(F)cccc12 observed_property=pIC50 value_modifier== data_value=7.36
compound=Fc1ccc2[nH]cc(CCCN3CCN(c4ccccc4)CC3)c2c1 observed_property=pIC50 value_modifier== data_value=7.22
compound=NCCCc1c[nH]c2c(F)cccc12 observed_property=pIC50 value_modifier== data_value=7.59
compound=NCCSCCCc1c[nH]c2c(F)cccc12 observed_property=pIC50 value_modifier=< data_value=7.00
compound=NC(=O)CCc1c[nH]c2c(F)cccc12 observed_property=pIC50 value_modifier== data_value=7.19
compound=OCCNCCc1c[nH]c2ccc(F)cc12 observed_property=pIC50 value_modifier== data_value=7.51
compound=N#CCCCc1c[nH]c2ccc(F)cc12 observed_property=pIC50 value_modifier== data_value=7.14
compound=NC(=O)CCCCc1c[nH]c2ccc(F)cc12 observed_property=pIC50 value_modifier== data_value=7.37
compound=NCCc1c[nH]c2c(F)cccc12 observed_property=pIC50 value_modifier== data_value=7.55
compound=NC(=O)CCc1c[nH]c2ccc(F)cc12 observed_property=pIC50 value_modifier== data_value=7.47
compound=CCSCCc1c[nH]c2ccc(F)cc12 observed_property=pIC50 value_modifier=< data_value=7.00
compound="NCC(N)CCc1c[nH]c2ccc(F)cc12 (configuration not stated)" observed_property=pIC50 value_modifier== data_value=7.59
compound=CCCc1c[nH]c2ccc(F)cc12 observed_property=pIC50 value_modifier=< data_value=7.00

The values you see were collected from ChEMBL document CHEMBL2346663.
